Origin of measurements: ChEMBL document CHEMBL3390845

# tgt: Cruzipain (Trypanosoma cruzi)
# testDescription: Inhibition of Trypanosoma cruzi Cruzipain using Z-Phe-Arg-AMC as substrate at 100 uM at pH 7.3 measured for 10 mins by spectrofluorimetric analysis relative to control
measuredParameter: inhibition (%)

Use these answered entries as a reference point.
>  <compoundStructureString>
C=CCNC(=S)N/N=C\c1ccccc1OCc1ccc2c(c1)=[N+]([O-])C(C)(C)[N+]=2[O-]

>  <tgt>
Cruzipain (Trypanosoma cruzi)

>  <obsValue>
6.6

$$$$
>  <compoundStructureString>
CC1(C)[N+]([O-])=c2ccc(COc3ccc(/C=N/NC(N)=S)cc3)cc2=[N+]1[O-]

>  <tgt>
Cruzipain (Trypanosoma cruzi)

>  <obsValue>
13.7

$$$$
>  <compoundStructureString>
O=Cc1ccccc1OCc1ccc2no[n+]([O-])c2c1

>  <tgt>
Cruzipain (Trypanosoma cruzi)

>  <obsValue>
0

$$$$
>  <compoundStructureString>
CC1(C)[N+]([O-])=c2ccc(COc3cccc(C=O)c3)cc2=[N+]1[O-]

>  <tgt>
Cruzipain (Trypanosoma cruzi)

>  <obsValue>
45

$$$$
>  <compoundStructureString>
[O-][n+]1onc2ccc(COc3ccc(/C=N/NC(=S)Nc4ccccc4)cc3)cc21

>  <tgt>
Cruzipain (Trypanosoma cruzi)

>  <obsValue>
95

$$$$

[I] CC1(C)[N+]([O-])=c2ccc(COc3ccc(/C=N/NC(N)=O)cc3)cc2=[N+]1[O-]
[II] NC(=S)N/N=C/c1cccc(OCc2ccc3no[n+]([O-])c3c2)c1
Compare I and II and name the one whose reported inhibition is smaller. Label of pick, please.
I

----------
# tgt: Cruzipain (Trypanosoma cruzi) (UniProt P25779)
# Sequence (P25779 123-467 limits assumed): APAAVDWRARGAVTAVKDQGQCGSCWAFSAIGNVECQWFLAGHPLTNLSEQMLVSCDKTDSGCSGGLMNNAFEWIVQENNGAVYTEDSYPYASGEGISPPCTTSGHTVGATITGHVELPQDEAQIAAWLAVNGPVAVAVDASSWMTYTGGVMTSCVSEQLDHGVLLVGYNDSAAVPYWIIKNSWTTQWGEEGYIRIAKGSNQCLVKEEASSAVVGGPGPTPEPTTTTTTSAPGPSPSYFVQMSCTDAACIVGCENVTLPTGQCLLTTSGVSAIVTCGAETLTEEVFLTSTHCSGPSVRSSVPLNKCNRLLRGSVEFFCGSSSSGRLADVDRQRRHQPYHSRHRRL
# testDescription: Inhibition of Trypanosoma cruzi Cruzipain using Z-Phe-Arg-AMC as substrate measured for 10 mins by spectrofluorimetric analysis relative to control
measuredParameter: ID50 (µM)

Use these answered entries as a reference point.
>  <compoundStructureString>
NC(=S)N/N=C\c1ccccc1OCc1ccc2no[n+]([O-])c2c1

>  <unitSymbol>
µM

>  <obsValue>
100

$$$$
>  <compoundStructureString>
[O-][n+]1onc2ccc(COc3ccc(/C=N/NC(=S)Nc4ccccc4)cc3)cc21

>  <unitSymbol>
µM

>  <obsValue>
75

$$$$
>  <compoundStructureString>
CC1(C)[N+]([O-])=c2ccc(COc3ccc(/C=N/NC(=S)Nc4ccccc4)cc3)cc2=[N+]1[O-]

>  <unitSymbol>
µM

>  <obsValue>
85

$$$$

[A] CC1(C)[N+]([O-])=c2ccc(COc3cccc(/C=N/NC(N)=S)c3)cc2=[N+]1[O-]
[B] N=C(N)N/N=C/c1cccc(OCc2ccc3no[n+]([O-])c3c2)c1
[C] NC(=S)N/N=C/c1ccc(OCc2ccc3no[n+]([O-])c3c2)cc1
Output the entries ranked by ID50 from maximum down to minimum. Answer with the labels in sequence, matching the requested order.
B, A, C
(B: 100 µM, A: 64 µM, C: 43 µM)

----------
# tgt: Cruzipain (Trypanosoma cruzi)
# testDescription: Inhibition of Trypanosoma cruzi Cruzipain using Z-Phe-Arg-AMC as substrate measured for 10 mins by spectrofluorimetric analysis relative to control
measuredParameter: ID50 (µM)

Use these answered entries as a reference point.
>  <compoundStructureString>
NC(=S)N/N=C/c1cccc(OCc2ccc3no[n+]([O-])c3c2)c1

>  <unitSymbol>
µM

>  <ID50>
78

$$$$
>  <compoundStructureString>
[O-][n+]1onc2ccc(/C=N/N=C/c3cc(Br)ccc3O)cc21

>  <unitSymbol>
µM

>  <ID50>
73

$$$$
>  <compoundStructureString>
[O-][n+]1onc2ccc(/C=N/N=C/c3ccccc3O)cc21

>  <unitSymbol>
µM

>  <ID50>
68

$$$$
>  <compoundStructureString>
O=Cc1cccc(OCc2ccc3no[n+]([O-])c3c2)c1

>  <unitSymbol>
µM

>  <ID50>
100

$$$$
>  <compoundStructureString>
C=CCNC(=S)N/N=C/c1ccc(OCc2ccc3c(c2)=[N+]([O-])C(C)(C)[N+]=3[O-])cc1

>  <unitSymbol>
µM

>  <ID50>
100

$$$$

[a] CC1(C)[N+]([O-])=c2ccc(COc3cccc(C=O)c3)cc2=[N+]1[O-]
[b] C=CCNC(=S)N/N=C/c1cccc(OCc2ccc3no[n+]([O-])c3c2)c1
[c] N=C(N)N/N=C/c1ccc(OCc2ccc3no[n+]([O-])c3c2)cc1
Output the entries ranked by ID50 from maximum down to minimum. Answer with the labels in sequence, matching the requested order.
a, b, c

----------
# testDescription: Hemolytic activity in human RBC assessed as hemoglobin release after 24 hrs by spectrophotometry
# Assay type: ADME, cell-based, Erythrocyte
# testSettings: human red blood cells (RBC), read-out: ID50
measuredParameter: HC50 at 24 h (µM)
Note: unit µM is implicit; provide only the numeric part.

Use these answered entries as a reference point.
>  <compoundStructureString>
C=CCNC(=S)N/N=C\c1ccccc1OCc1ccc2no[n+]([O-])c2c1

>  <obsValue>
139

$$$$
>  <compoundStructureString>
CC1(C)[N+]([O-])=c2ccc(COc3cccc(/C=N/NC(N)=S)c3)cc2=[N+]1[O-]

>  <obsValue>
141

$$$$
>  <compoundStructureString>
O=Cc1cccc(OCc2ccc3no[n+]([O-])c3c2)c1

>  <obsValue>
50

$$$$

# next compound below
Fill in: HC50 at 24 h of NC(=S)N/N=C\c1ccccc1OCc1ccc2no[n+]([O-])c2c1 is ___
189

----------
# tgt: Cruzipain (Trypanosoma cruzi)
# testDescription: Inhibition of Trypanosoma cruzi Cruzipain using Z-Phe-Arg-AMC as substrate at 100 uM at pH 7.3 measured for 10 mins by spectrofluorimetric analysis relative to control
measuredParameter: inhibition (%)

Use these answered entries as a reference point.
>  <compoundStructureString>
N=C(N)N/N=C\c1ccccc1OCc1ccc2no[n+]([O-])c2c1

>  <tgt>
Cruzipain (Trypanosoma cruzi)

>  <unitSymbol>
%

>  <inhibition>
39

$$$$
>  <compoundStructureString>
NC(=S)N/N=C\c1ccccc1OCc1ccc2no[n+]([O-])c2c1

>  <tgt>
Cruzipain (Trypanosoma cruzi)

>  <unitSymbol>
%

>  <inhibition>
49

$$$$
>  <compoundStructureString>
CC1(C)[N+]([O-])=c2ccc(COc3ccccc3/C=N\NC(N)=O)cc2=[N+]1[O-]

>  <tgt>
Cruzipain (Trypanosoma cruzi)

>  <unitSymbol>
%

>  <inhibition>
0

$$$$
>  <compoundStructureString>
CC1(C)[N+]([O-])=c2ccc(COc3ccccc3/C=N\NC(N)=S)cc2=[N+]1[O-]

>  <tgt>
Cruzipain (Trypanosoma cruzi)

>  <unitSymbol>
%

>  <inhibition>
35

$$$$

[a] C=CCNC(=S)N/N=C/c1ccc(OCc2ccc3no[n+]([O-])c3c2)cc1
[b] [O-][n+]1onc2ccc(COc3ccccc3/C=N\NC(=S)Nc3ccccc3)cc21
[c] NC(=O)N/N=C\c1ccccc1OCc1ccc2no[n+]([O-])c2c1
[d] C/C(=N/NC(=N)N)c1ccccc1OCc1ccc2no[n+]([O-])c2c1
Number of compounds to sort: 4. Sort criterion: inhibition, ascending. Answer with the labels in sequence, matching the requested order.
b, c, d, a

----------
# testDescription: Selectivity index, ratio of ID50 for mouse J774 cells to ID50 for epimastigotes of Trypanosoma cruzi Tulahuen 2
# Format: toxicity, cell-based
# testSettings: read-out: Selectivity Index
Parameter selectivity ratio: see the listing below.
Write no unit; give the number alone.

Fill in: selectivity ratio of O=Cc1ccccc1OCc1ccc2no[n+]([O-])c2c1 is ___
12.4

Fill in: selectivity ratio of NC(=S)N/N=C/c1ccc(OCc2ccc3no[n+]([O-])c3c2)cc1 is ___
26.7

----------
# tgt: Cruzipain (Trypanosoma cruzi) (UniProt P25779)
# testDescription: Inhibition of Trypanosoma cruzi Cruzipain using Z-Phe-Arg-AMC as substrate at 100 uM at pH 7.3 measured for 10 mins by spectrofluorimetric analysis relative to control
measuredParameter: inhibition (%)

Use these answered entries as a reference point.
>  <compoundStructureString>
C=CCNC(=S)N/N=C/c1ccc(OCc2ccc3c(c2)=[N+]([O-])C(C)(C)[N+]=3[O-])cc1

>  <inhibition [%]>
51

$$$$
>  <compoundStructureString>
CC1(C)[N+]([O-])=c2ccc(COc3ccc(C=O)cc3)cc2=[N+]1[O-]

>  <inhibition [%]>
35.5

$$$$

[1] CC(=O)c1ccccc1OCc1ccc2c(c1)=[N+]([O-])C(C)(C)[N+]=2[O-]
[2] N=C(N)N/N=C/c1cccc(OCc2ccc3no[n+]([O-])c3c2)c1
Compare 1 and 2 and name the one whose reported inhibition is smaller. Label of pick, please.
1
(1: 0%, 2: 42%)

[P] CC1(C)[N+]([O-])=c2ccc(COc3cccc(/C=N/NC(N)=S)c3)cc2=[N+]1[O-]
[Q] O=Cc1ccc(OCc2ccc3no[n+]([O-])c3c2)cc1
[R] CC1(C)[N+]([O-])=c2ccc(COc3ccccc3/C=N\NC(=N)N)cc2=[N+]1[O-]
[S] C=CCNC(=S)N/N=C\c1ccccc1OCc1ccc2no[n+]([O-])c2c1
[T] O=Cc1cccc(OCc2ccc3no[n+]([O-])c3c2)c1
Output the entries ranked by inhibition from maximum down to minimum. Answer with the labels in sequence, matching the requested order.
P, T, S, Q, R
(P: 95%, T: 43%, S: 11%, Q: 6.3%, R: 2.5%)

[P] C=CCNC(=S)N/N=C/c1cccc(OCc2ccc3no[n+]([O-])c3c2)c1
[Q] CC(=O)c1ccccc1OCc1ccc2no[n+]([O-])c2c1
Hi, I'm comparing P with Q and wondering which one has the bigger number for inhibition. Any idea? Label of pick, please.
P
(P: 100%, Q: 12%)

[P] CC1(C)[N+]([O-])=c2ccc(COc3ccccc3/C=N\NC(=S)Nc3ccccc3)cc2=[N+]1[O-]
[Q] CC1(C)[N+]([O-])=c2ccc(COc3ccc(/C=N/NC(=S)Nc4ccccc4)cc3)cc2=[N+]1[O-]
Compare P and Q and name the one whose reported inhibition is smaller. Label of pick, please.
P
(P: 0%, Q: 72%)
